- study.system: T1, human DLL4 expressed on cells (CHO-hDLL4; HEK293-hDLL4) (human, UniProt Q9NR61 27-685)
- T1 construct: full length human DLL4 overexpressed on CHO cells (FMAT, FACS) or HEK293 cells (reporter assay)
- protocol.details: competition FMAT, labelled hNotch1-Fc on CHO-hDLL4 cells
# IC50 per record follows
Field: numeric (nM). Do not append units.

# binder, IC50 (nM)
rows = [
    ("DLLBII136C07 (VHH, not shown: small tags and cut ends) VHH: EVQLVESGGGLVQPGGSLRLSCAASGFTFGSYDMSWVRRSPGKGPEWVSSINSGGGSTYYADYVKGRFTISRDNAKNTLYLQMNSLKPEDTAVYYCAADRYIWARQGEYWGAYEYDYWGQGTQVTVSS", 8),
    ("DLLBII129D08 (VHH, not shown: small tags and cut ends) VHH: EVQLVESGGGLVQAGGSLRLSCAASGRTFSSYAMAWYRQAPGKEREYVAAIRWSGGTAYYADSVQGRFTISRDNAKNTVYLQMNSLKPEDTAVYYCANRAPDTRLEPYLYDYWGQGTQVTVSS", 7.8),
]

Switching to the query record.
Supply reported IC50 belonging to this binder: DLLBII129E11 (VHH, not shown: small tags and cut ends) VHH: EVQLVESGGGLVQAGGSLRLSCAASGRTFSSYAMAWYRQAPGKEREYVAAIRWSGGTAYYADSVQGRFTISRDNAKNTVYLQMNSLKPEDTAVYYCANRAPDTRLRPYLYDYWGQGTQVTVSS
8.1
